The reported measurements were obtained from patent US8946439B2.

Each entry below carries its reported pIC50.
# system.name: hP2X3 (Homo sapiens, UniProt P56373)
# Construct: expressed in transfected cells; host or cells: e.g. HEK293 or 1321N1
# assay.details: Calcium uptake assay (P2X antagonist assay), P2X3 homomer
# Format: cell-based
# applied.conditions: Ca influx (calcium uptake assay), hP2X3; read-out: IC50 hP2X3
# Method: The human P2X2/3 chimera clone is created as described by Neelands et al, and then cloned into an expression vector as above. […] Functional activity of compounds at the P2X receptor is determined by measuring their ability to inhibit agonist-induced calcium influx. […] At the start of each screening day, the agonist EC50 is determined. Compound % inhibition or IC50s are subsequently determined using a predetermined agonist concentration (EC50-90 depending on cell line) as a stimulus. […]
pIC50: −log10 of the molar value.

Cc1ccc(-c2cc(C(=O)NCc3ccc(C)nc3)cc(C(F)(F)F)c2)cc1 :: < 6.00
Cc1ccc(-c2cc(C(=O)N[C@H](CCO)c3ccc(C)nc3)cc(S(C)(=O)=O)c2)cc1 :: > 7.00
Cc1ccc(-c2cc(C(=O)NCc3ccc(C)nc3)cc(C(O)CN(C)C)c2)cc1 (stereo not shown) :: > 7.00

GET /values?item= "Cc1ccc(-c2cc(CO)cc(C(=O)N[C@H](C)c3ccc(C)nc3)c2)c(C#N)c1" &system= hP2X3 (Homo sapiens, UniProt P56373) returns pIC50: > 7.00

====

Each entry below carries its reported pIC50.
# system.name: hP2X3 (Homo sapiens, UniProt P56373)
# Construct: expressed in transfected cells; host or cells: e.g. HEK293 or 1321N1
# assay.details: Calcium uptake assay (P2X antagonist assay), P2X3 homomer
# Type: cell-based
# applied.conditions: Ca influx (calcium uptake assay), hP2X3; read-out: IC50 hP2X3
pIC50: −log10 of the molar value.

// recorded pIC50 for Cc1ccc(-c2cc(C(=O)N[C@H](C)c3ccc(C)nc3)cc(C(C)O)c2)c(C#N)c1 (some centres unmarked) : > 7.00

// recorded pIC50 for COCC(C)Oc1cc(C(=O)N[C@H](C)c2ccc(C)nc2)cc(-c2ccc(C)cc2)c1 (some centres unmarked) : > 7.00

// recorded pIC50 for Cc1ccc(-c2cc(C(=O)NC(C)c3ccc(Cl)cc3Cl)cc(S(C)(=O)=O)c2)nc1 (centres unmarked) : 6.30 to 7.00

// recorded pIC50 for "COCc1cc(C(=O)NCc2cnc(C)nc2)cc(-c2ccc(C)cn2)c1" : 6.30 to 7.00

// recorded pIC50 for Cc1ccc(-c2cc(OC3CNCC3O)cc(C(=O)N[C@H](C)c3ccc(C)nc3)c2)cc1 (some centres unmarked) : > 7.00

// recorded pIC50 for Cc1ccc(-c2cc(OCC3CCOC3)cc(C(=O)N[C@H](C)c3ccc(C)nc3)c2)c(C#N)c1 (some centres unmarked) : > 7.00

// recorded pIC50 for Cc1ccc(-c2cc(C(=O)N[C@H](C)c3cnc(C)nc3)cc(C(O)c3nccs3)c2)cc1 (some centres unmarked) : > 7.00

// recorded pIC50 for Cc1ccc(-c2cc(C(=O)N[C@H](C)c3cnc(C)nc3)cc(C(O)CO)c2)c(C#N)c1 (some centres unmarked) : > 7.00

====

Each entry below carries its reported pIC50.
# system.name: hP2X2/3H (Homo sapiens, UniProt P56373+Q9UBL9)
# Construct: expressed in transfected cells; host or cells: e.g. HEK293 or 1321N1
# Sequence (Q9UBL9 whole entry, one chain of several): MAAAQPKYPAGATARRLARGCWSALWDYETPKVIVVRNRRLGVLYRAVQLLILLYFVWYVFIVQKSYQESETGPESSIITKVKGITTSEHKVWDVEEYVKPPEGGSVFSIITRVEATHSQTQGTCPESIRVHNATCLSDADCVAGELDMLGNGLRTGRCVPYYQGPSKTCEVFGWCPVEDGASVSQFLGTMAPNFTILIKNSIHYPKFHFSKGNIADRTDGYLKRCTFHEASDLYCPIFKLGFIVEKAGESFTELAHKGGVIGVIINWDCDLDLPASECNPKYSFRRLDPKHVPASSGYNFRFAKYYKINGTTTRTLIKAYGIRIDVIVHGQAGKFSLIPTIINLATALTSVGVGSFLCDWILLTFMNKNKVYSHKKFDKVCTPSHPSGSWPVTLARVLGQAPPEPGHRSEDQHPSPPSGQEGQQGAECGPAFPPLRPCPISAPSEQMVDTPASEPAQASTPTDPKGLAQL
# assay.details: Calcium uptake assay (P2X antagonist assay), P2X2/3 heteromer
# Type: cell-based
# applied.conditions: Ca influx (calcium uptake assay), hP2X2/3H; read-out: IC50 hP2X2/3H
pIC50: −log10 of the molar value.

Cc1ccc(-c2cc(Oc3nccs3)cc(C(=O)N[C@H](C)c3cnc(C)nc3)c2)nc1 [Compound 269] :: > 7.00

// recorded pIC50 for Cc1ncc([C@@H](C)NC(=O)c2cc(-c3ccccc3)cc(S(C)(=O)=O)c2)cn1 [Compound 370] : 6.00 to 6.30

====

# system.name: hP2X2/3H (Homo sapiens, UniProt P56373+Q9UBL9)
# Construct: expressed in transfected cells; host or cells: e.g. HEK293 or 1321N1
# assay.details: Calcium uptake assay (P2X antagonist assay), P2X2/3 heteromer
# Format: cell-based
# applied.conditions: calcium uptake assay, hP2X2/3H; read-out: IC50 hP2X2/3H (nM), Ca Influx
assay.metric: IC50

Cc1ccc(-c2cc(C(=O)NC(C)c3ccc(C)nc3)cc(C(=O)N3CCCC3)c2)cc1 (stereo not shown) :: < 100 nM
Cc1ccc(CNC(=O)c2cc(-c3ccc(Cl)c(C)c3)cc(S(C)(=O)=O)c2)cn1 :: > 1000 nM
Cc1ccc(-c2cc(C(=O)N[C@H](C)c3cnn(C)c3C(F)(F)F)cc(C(=O)N3CCCC3)c2)cc1 :: 501 to 1000 nM

Okay, next one:
// recorded IC50 for "Cc1ccc(-c2cc(C(=O)N[C@H](C)c3ccc(C)nc3)cc(S(=O)(=O)CC(C)C)c2)cc1" : < 100 nM

====

# system.name: hP2X3 (Homo sapiens)
# Construct: expressed in transfected cells; host or cells: e.g. HEK293 or 1321N1
# Sequence (P56373 1-397): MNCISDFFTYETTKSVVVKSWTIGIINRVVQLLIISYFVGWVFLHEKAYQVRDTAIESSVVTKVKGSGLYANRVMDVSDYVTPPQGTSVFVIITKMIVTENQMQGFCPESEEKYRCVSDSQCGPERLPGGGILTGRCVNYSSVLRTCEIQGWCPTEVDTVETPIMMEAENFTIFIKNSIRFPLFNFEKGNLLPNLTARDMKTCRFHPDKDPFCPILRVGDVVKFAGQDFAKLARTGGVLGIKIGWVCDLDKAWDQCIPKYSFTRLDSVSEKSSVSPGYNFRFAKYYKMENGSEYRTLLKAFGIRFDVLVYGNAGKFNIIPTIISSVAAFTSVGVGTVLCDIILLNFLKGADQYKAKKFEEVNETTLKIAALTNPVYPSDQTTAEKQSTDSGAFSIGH
# assay.details: Calcium uptake assay (P2X antagonist assay), P2X3 homomer
# Assay type: cell-based
# applied.conditions: Ca influx (calcium uptake assay), hP2X3; read-out: IC50 hP2X3
assay.metric: IC50

Cc1ncc([C@@H](C)NC(=O)c2cc(C(=O)N3CCCC3)cc(-c3ccc(Br)cc3)c2)cn1 :: < 100 nM
CCS(=O)(=O)c1cc(C(=O)N[C@H](C)c2cnc(C)nc2)cc(-c2ccc(C)cc2)c1 :: < 100 nM
Cc1ccc(-c2cc(OC3COCC3O)cc(C(=O)N[C@H](C)c3cnc(C)nc3)c2)nc1 (some centres unmarked) :: < 100 nM
Cc1ccc(-c2cc(CO)cc(C(=O)N[C@H](C)c3ccc(C)nc3)c2)cc1 :: < 100 nM

GET /values?item= CCN(CC)CC(O)c1cc(C(=O)N[C@H](C)c2ccc(C)nc2)cc(-c2ccc(C)cc2C#N)c1 (some centres unmarked) &system= hP2X3 (Homo sapiens) returns IC50: < 100 nM

GET /values?item= Cc1ccc(-c2cc(C(=O)NCc3ccc(C)nc3)cc(C(O)CN3CCOCC3)c2)cc1 (centres unmarked) &system= hP2X3 (Homo sapiens) returns IC50: < 100 nM

GET /values?item= "Cc1ccc(-c2cc(C(=O)NCc3cnc4[nH]ccc4c3)cc(C(=O)N3CCCC3)c2)cc1" &system= hP2X3 (Homo sapiens) returns IC50: > 1000 nM

GET /values?item= "Cc1ccc(-c2cc(Oc3nc(-c4ccccc4)cs3)cc(C(=O)N[C@H](C)c3ccc(C)nc3)c2)nc1" &system= hP2X3 (Homo sapiens) returns IC50: 100 to 500 nM

====

Each entry below carries its reported IC50.
# system.name: hP2X3 (Homo sapiens)
# Construct: expressed in transfected cells; host or cells: e.g. HEK293 or 1321N1
# assay.details: Calcium uptake assay (P2X antagonist assay), P2X3 homomer
# Format: cell-based
# applied.conditions: Ca influx (calcium uptake assay), hP2X3; read-out: IC50 hP2X3

Here's what some known entries look like.
Cc1ccc(-c2cc(C(=O)N[C@H](C)c3ccc(C)nc3)cc(C(O)c3ccccn3)c2)nc1 (stereo partly shown) :: < 100 nM
COCCOc1cc(C(=O)NCc2ccc(C)nc2)cc(-c2ccc(C)cc2)c1 :: < 100 nM
Cc1ccc(-c2cc(C(=O)N[C@H](C)c3cnc(C)nc3)cc(C(O)c3cncn3C)c2)cc1 (stereo partly shown) :: < 100 nM

Okay, next one:
GET /values?item= "Cc1ccc(-c2cc(Oc3ccccn3)cc(C(=O)N[C@H](C)c3cnc(C)nc3)c2)cc1" &system= hP2X3 (Homo sapiens) returns IC50: 100 to 500 nM

====

Each entry below carries its reported IC50.
# system.name: hP2X2/3H (Homo sapiens, UniProt P56373+Q9UBL9)
# Construct: expressed in transfected cells; host or cells: e.g. HEK293 or 1321N1
# assay.details: Calcium uptake assay (P2X antagonist assay), P2X2/3 heteromer
# Type: cell-based
# applied.conditions: calcium uptake assay, hP2X2/3H; read-out: IC50 hP2X2/3H (nM), Ca Influx

Here's what some known entries look like.
Cc1ncc(CNC(=O)c2cc(C(=O)N3CCCC3)cc(-c3ccc(C(F)(F)F)cc3)c2)cn1 :: > 1000 nM
Cc1ccc(-c2cc(C(=O)NCc3ccc(C)nc3)cc(C(=O)N3CCNCC3)c2)cc1 :: 100 to 500 nM
Cc1ccc(-c2cc(C(=O)N[C@H](C)c3ccc(C(F)(F)F)nc3)cc(C(=O)N3CC(O)C3)c2)cc1 :: < 100 nM

Okay, next one:
// recorded IC50 for "Cc1ccc(-c2cc(C(=O)NCc3ccc(C)nc3)cc(C(=O)N3CCCC3)c2)cc1" : < 100 nM
